assay: Metabolic stability in microsomal fraction, mouse; format: in vitro ADME; conditions: mouse, mouse microsomal fraction; read-out: Metabolic Stability (Microsomal Fr.) % remaining after 30 min
readout_type: remaining at 0.5 h (%)
Answers are plain numbers, in %.

Asked: Dear colleague, I am looking for the recorded remaining at 0.5 h of the following compound: O=C1C(NC2CCN(C(=O)c3ccc(F)c(F)c3)CC2)=C(Cl)C(=O)c2[nH]c(C(F)(F)F)nc21 [14h]
Given back: 92.8

====

assay: Metabolic stability in microsomal fraction, mouse; format: in vitro ADME; details: microsomal fraction; species not given; lowest of human, rat, mouse is mouse; read-out: Metabolic stability, % remaining after 30 min incubation (summary)
readout_type: remaining at 0.5 h

Asked: State the recorded remaining at 0.5 h for this entry: O=C1C(NC2CCN(C(=O)c3ccc(F)c(F)c3)CC2)=C(Cl)C(=O)c2[nH]c(C(F)(F)F)nc21 [14h]
Given back: > 92%

====

experiment: In vivo pharmacokinetic study in rats; details: male, SD, plasma, 10 mg/kg; oral administration, 10 mpk, rat
readout_type: Tmax (min)
Answers are plain numbers, in min.

Asked: Look up Tmax for this compound: O=C1C(NC2CCN(C(=O)c3ccc(F)c(F)c3)CC2)=C(Cl)C(=O)c2[nH]c(C(F)(F)F)nc21 [14h]
Given back: 19.8

====

target: hP2X3R (Homo sapiens, UniProt P56373); experiment: Calcium influx (Fluo-4) evoked by α,β-meATP in HEK293 cells stably expressing hP2X3R; details: antagonistic activity; HEK293 cells expressing hP2X3R; agonist at EC70
Sequence (P56373 whole entry): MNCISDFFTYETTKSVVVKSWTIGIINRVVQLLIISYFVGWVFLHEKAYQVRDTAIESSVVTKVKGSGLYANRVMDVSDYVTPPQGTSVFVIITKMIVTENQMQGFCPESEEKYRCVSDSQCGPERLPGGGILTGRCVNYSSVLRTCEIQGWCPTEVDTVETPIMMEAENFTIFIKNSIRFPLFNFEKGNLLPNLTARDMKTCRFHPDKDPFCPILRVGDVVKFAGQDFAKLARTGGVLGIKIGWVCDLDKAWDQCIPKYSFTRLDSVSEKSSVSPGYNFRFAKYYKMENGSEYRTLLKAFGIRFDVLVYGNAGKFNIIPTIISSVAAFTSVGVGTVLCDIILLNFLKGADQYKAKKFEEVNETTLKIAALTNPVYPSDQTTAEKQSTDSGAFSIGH
Threshold 900 nM: IC50 strictly smaller gives fulfilled, otherwise not fulfilled.

Some solved cases for reference:
Asked: Does the reported IC50 of N#Cc1ccc(C(=O)N2CCC(NC3=C(Cl)C(=O)c4[nH]c(C(F)(F)F)nc4C3=O)CC2)cc1 [14j] stay below 900 nM?
Given back: not fulfilled

Asked: Dear colleague, could you confirm whether IC50 of Cc1nc2c([nH]1)C(=O)C(Cl)=C(Nc1ccc(Cl)cc1)C2=O [10b] falls below 900 nM? Thanks.
Given back: not fulfilled

Asked: Does the reported IC50 of O=C1C(Nc2ccc(F)c(F)c2)=C(Cl)C(=O)c2[nH]c(C(F)(F)F)nc21 [11c] stay below 900 nM?
Given back: fulfilled

Asked: Problem: For the compound O=C1C(Nc2ccc(Cl)cc2F)=C(Cl)C(=O)c2[nH]c(C(F)(F)F)nc21 [11g] , is IC50 under 900 nM?
Given back: fulfilled

Asked: Is 900 nM strictly greater than the compound's reported IC50? compound: O=C1C(NC2CCN(C(=O)c3ccc(F)c(F)c3)CC2)=C(Cl)C(=O)c2[nH]c(C(F)(F)F)nc21 [14h]
Given back: fulfilled

More entries:
Asked: Strictly below 900 nM: is that where IC50 of O=C1C(Nc2ccc(Br)c(F)c2)=C(Cl)C(=O)c2[nH]c(C(F)(F)F)nc21 [11j] sits?
Given back: fulfilled

Asked: Below 900 nM on IC50? Entry COC(=O)N1CCC(NC2=C(Cl)C(=O)c3[nH]c(C(F)(F)F)nc3C2=O)CC1 [14a]
Given back: not fulfilled

====

experiment: Metabolic stability in microsomal fraction, human; assay type: in vitro ADME; settings: human microsomal fraction, read-out: Metabolic Stability (Microsomal Fr.) % remaining after 30 min
readout_type: remaining at 0.5 h

Asked: # remaining at 0.5 h lookup, item O=C1C(NC2CCN(C(=O)c3ccc(F)c(F)c3)CC2)=C(Cl)C(=O)c2[nH]c(C(F)(F)F)nc21 [14h]
Given back: > 99%

====

experiment: In vivo pharmacokinetic study in rats; conditions: male, SD, plasma, 10 mg/kg; oral administration, 10 mpk, rat
readout_type: Cmax

Asked: Query: Cmax; subject: O=C1C(NC2CCN(C(=O)c3ccc(F)c(F)c3)CC2)=C(Cl)C(=O)c2[nH]c(C(F)(F)F)nc21 [14h]
Given back: 40 ng/mL

====

Field: IC50. Provide a value for each of the compounds that follow.
target: hP2X3R (Homo sapiens, UniProt P56373); assay: Calcium influx (Fluo-4) evoked by α,β-meATP in HEK293 cells stably expressing hP2X3R; conditions: antagonistic activity; HEK293 cells expressing hP2X3R; agonist at EC70

These solved cases illustrate the format of a correct answer.
Asked: Any idea what IC50 was measured for O=C1C(NC2CCN(C(=O)c3ccc(C(F)(F)F)cc3)CC2)=C(Cl)C(=O)c2[nH]c(C(F)(F)F)nc21 [14k] ?
Given back: > 10 µM

Asked: Please report the recorded IC50 for O=C1C(NC2CCN(C(=O)c3ccc(Cl)c(Cl)c3)CC2)=C(Cl)C(=O)c2[nH]c(C(F)(F)F)nc21 [14g] .
Given back: 0.577 µM

Asked: I'd like to know its IC50. The compound in question is O=C1C(NC2CCN(C(=O)c3ccc(F)c(Cl)c3)CC2)=C(Cl)C(=O)c2[nH]c(C(F)(F)F)nc21 [14i]
Given back: 0.505 µM

Asked: Reported IC50, compound O=C1C(Nc2ccc(F)c(Br)c2)=C(Cl)C(=O)c2[nH]c(C(F)(F)F)nc21 [11i] : ____
Given back: 1.04 µM

Batch of 3 compounds: report IC50 for each.
1. O=C1C(Nc2ccc(Cl)c(Cl)c2)=C(Cl)C(=O)c2[nH]c(C(F)(F)F)nc21 [11d]
2. O=C1C(Nc2ccc(F)cc2Cl)=C(Cl)C(=O)c2[nH]c(C(F)(F)F)nc21 [11e]
3. O=C1C(NC2CCN(C(=O)c3ccc(Cl)cc3)CC2)=C(Cl)C(=O)c2[nH]c(C(F)(F)F)nc21 [14e]

Given back:
["0.808 µM", "0.66 µM", "0.481 µM"]

// each compound listed below needs its IC50
1. Cc1nc2c([nH]1)C(=O)C(Cl)=C(Nc1ccc(F)c(F)c1)C2=O
2. O=C1C(Nc2ccc(Cl)c(F)c2)=C(Cl)C(=O)c2[nH]c(C(F)(F)F)nc21 [11h]
3. O=C1C(NC2CCN(C(=O)c3ccccc3)CC2)=C(Cl)C(=O)c2[nH]c(C(F)(F)F)nc21 [14c]
4. Cc1nc2c([nH]1)C(=O)C(Cl)=C(Nc1ccc(F)cc1)C2=O [10a]
5. O=C1C(NC2CCN(C(=O)c3ccc(F)cc3)CC2)=C(Cl)C(=O)c2[nH]c(C(F)(F)F)nc21 [14d]
6. O=C1C(Nc2ccc(F)c(Cl)c2)=C(Cl)C(=O)c2[nH]c(C(F)(F)F)nc21 [11f]

Given back:
1.03 µM
0.541 µM
0.864 µM
4.91 µM
0.45 µM
0.703 µM

// for each compound below, give its IC50
1. O=C1C(Cl)=C(Nc2ccc(F)cc2)C(=O)c2[nH]c(C(F)(F)F)nc21 [11a]
2. O=C1C(Nc2ccc(Cl)cc2I)=C(Cl)C(=O)c2[nH]c(C(F)(F)F)nc21 [11k]
3. O=C1C(Cl)=C(Nc2ccc(Cl)cc2)C(=O)c2[nH]c(C(F)(F)F)nc21 [11b]
4. O=C1C(NC2CCN(C(=O)c3ccc(Br)cc3)CC2)=C(Cl)C(=O)c2[nH]c(C(F)(F)F)nc21 [14f]

Given back:
1.02 µM
0.774 µM
0.825 µM
0.804 µM
